# System: human PD-L1 (human) (UniProt Q9NZQ7)
# Sequence (Q9NZQ7 19-290): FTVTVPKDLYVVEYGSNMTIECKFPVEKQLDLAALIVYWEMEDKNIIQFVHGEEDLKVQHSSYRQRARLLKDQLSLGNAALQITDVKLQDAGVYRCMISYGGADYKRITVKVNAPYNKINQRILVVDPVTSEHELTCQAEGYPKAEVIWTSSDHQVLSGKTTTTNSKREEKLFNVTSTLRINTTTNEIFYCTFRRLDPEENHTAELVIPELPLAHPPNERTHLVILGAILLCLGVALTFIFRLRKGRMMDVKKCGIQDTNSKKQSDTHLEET
# Assay details: flow cytometry, Expi293F cells transfected with PD-L1
Note to self: values exactly at 0.08 are label 1. So parental ratio at or above 0.08 is label 1, below is label 0.

Exam item: Is the recorded value of parental ratio equal to or greater than 0.08 for this binder? CD80 K36G/K37Q/M38I/L40M ECD-Fc (Fc fusion) VIHVTKEVKEVATLSCGHNVSVEELAQTRIYWQKEGQIVMTMMSGDMNIWPEYKNRTIFDITNNLSIVILALRPSDEGTYECVVLKYEKDAFKREHLAEVTLSVKADFPTPSISDFEIPTSNIRRIICSTSGGFPEPHLSWLENGEELNAINTTVSQDPETELYAVSSKLDFNMTTNHSFMCLIKYGHLRVNQTFNWNTTKQEHFPDN
Marked response: label 0

Exam item: Is the recorded value of parental ratio equal to or greater than 0.08 for this binder? CD80 A91G/F92L/F108L/I118V/T120S ECD-Fc (Fc fusion) VIHVTKEVKEVATLSCGHNVSVEELAQTRIYWQKEKKMVLTMMSGDMNIWPEYKNRTIFDITNNLSIVILALRPSDEGTYECVVLKYEKDGLKREHLAEVTLSVKADLPTPSISDFEVPSSNIRRIICSTSGGFPEPHLSWLENGEELNAINTTVSQDPETELYAVSSKLDFNMTTNHSFMCLIKYGHLRVNQTFNWNTTKQEHFPDN
Marked response: label 1

Exam item: Is the recorded value of parental ratio equal to or greater than 0.08 for this binder? CD80 A91G/S103P ECD-Fc (Fc fusion) VIHVTKEVKEVATLSCGHNVSVEELAQTRIYWQKEKKMVLTMMSGDMNIWPEYKNRTIFDITNNLSIVILALRPSDEGTYECVVLKYEKDGFKREHLAEVTLPVKADFPTPSISDFEIPTSNIRRIICSTSGGFPEPHLSWLENGEELNAINTTVSQDPETELYAVSSKLDFNMTTNHSFMCLIKYGHLRVNQTFNWNTTKQEHFPDN
Marked response: label 1

Exam item: Is the recorded value of parental ratio equal to or greater than 0.08 for this binder? CD80 L70Q/A91G/T110A/I118V/T120S/T130A ECD-Fc (Fc fusion) VIHVTKEVKEVATLSCGHNVSVEELAQTRIYWQKEKKMVLTMMSGDMNIWPEYKNRTIFDITNNLSIVIQALRPSDEGTYECVVLKYEKDGFKREHLAEVTLSVKADFPAPSISDFEVPSSNIRRIICSASGGFPEPHLSWLENGEELNAINTTVSQDPETELYAVSSKLDFNMTTNHSFMCLIKYGHLRVNQTFNWNTTKQEHFPDN
Marked response: label 0

Exam item: Is the recorded value of parental ratio equal to or greater than 0.08 for this binder? CD80 V22A/L70Q/S121P ECD-Fc (Fc fusion) VIHVTKEVKEVATLSCGHNVSAEELAQTRIYWQKEKKMVLTMMSGDMNIWPEYKNRTIFDITNNLSIVIQALRPSDEGTYECVVLKYEKDAFKREHLAEVTLSVKADFPTPSISDFEIPTPNIRRIICSTSGGFPEPHLSWLENGEELNAINTTVSQDPETELYAVSSKLDFNMTTNHSFMCLIKYGHLRVNQTFNWNTTKQEHFPDN
Marked response: label 0

Exam item: Is the recorded value of parental ratio equal to or greater than 0.08 for this binder? CD80 R29V/M43Q/E81R/L85I/K89R/D90L/A91E/F92N/K93Q/R94G ECD-Fc (Fc fusion) VIHVTKEVKEVATLSCGHNVSVEELAQTVIYWQKEKKMVLTMQSGDMNIWPEYKNRTIFDITNNLSIVILALRPSDEGTYRCVVIKYERLENQGEHLAEVTLSVKADFPTPSISDFEIPTSNIRRIICSTSGGFPEPHLSWLENGEELNAINTTVSQDPETELYAVSSKLDFNMTTNHSFMCLIKYGHLRVNQTFNWNTTKQEHFPDN
Marked response: label 1

Exam item: Is the recorded value of parental ratio equal to or greater than 0.08 for this binder? CD80 E24G/R29D/Y31L/Q33H/K36G/M38I/T41A/M43R/M47T/F59L/E81V/L85R/K89N/A91T/F92P/K93V/R94L/H96R/N149S/C182S ECD-Fc (Fc fusion) VIHVTKEVKEVATLSCGHNVSVEGLAQTDILWHKEGKIVLAMRSGDTNIWPEYKNRTILDITNNLSIVILALRPSDEGTYVCVVRKYENDTPVLERLAEVTLSVKADFPTPSISDFEIPTSNIRRIICSTSGGFPEPHLSWLENGEELSAINTTVSQDPETELYAVSSKLDFNMTTNHSFMSLIKYGHLRVNQTFNWNTTKQEHFPDN
Marked response: label 0

Exam item: Is the recorded value of parental ratio equal to or greater than 0.08 for this binder? CD80 S44P/L70Q/A91G/T130A ECD-Fc (Fc fusion) VIHVTKEVKEVATLSCGHNVSVEELAQTRIYWQKEKKMVLTMMPGDMNIWPEYKNRTIFDITNNLSIVIQALRPSDEGTYECVVLKYEKDGFKREHLAEVTLSVKADFPTPSISDFEIPTSNIRRIICSASGGFPEPHLSWLENGEELNAINTTVSQDPETELYAVSSKLDFNMTTNHSFMCLIKYGHLRVNQTFNWNTTKQEHFPDN
Marked response: label 0
